Test details: Drug excretion in bile duct-cannulated rat bile treated with [14C]brivanib alaninate at 100 mg/kg, po administered as single dose via gavage by HPLC analysis
Type: ADME, organism-based
Assay context: in vivo
I would appreciate it if you labelled entries Yes when Compound recovery is 2% or higher, otherwise No.

Cc1c(OC[C@@H](C)OS(=O)(=O)O)cn2ncnc(Oc3ccc4[nH]c(C(=O)O)cc4c3F)c12 = Yes
Cc1c(OS(=O)(=O)O)cn2ncnc(Oc3ccc4[nH]c(C(=O)O)cc4c3F)c12 = Yes
Cc1cc2c(F)c(Oc3ncnn4cc(OS(=O)(=O)O)c(C)c34)ccc2[nH]1 = Yes

Ask | Kindly determine if Compound recovery recorded for Cc1cc2c(F)c(Oc3ncnn4cc(OC[C@@H](C)OS(=O)(=O)O)c(C)c34)ccc2[nH]1 is above or exactly 2%.
Reply | Yes

Ask | Identify whether the reported Compound recovery of the following compound is 2% or greater: Cc1cc2c(F)c(Oc3ncnn4cc(OCC(=O)O)c(C)c34)ccc2[nH]1
Reply | No

Ask | Hi, just wondering whether Cc1c(OC[C@@H](C)O)cn2ncnc(Oc3ccc4[nH]c(C(=O)O)cc4c3F)c12 shows Compound recovery of 2% or higher.
Reply | No

Ask | Please indicate if the recorded Compound recovery for Cc1c(O)cn2ncnc(Oc3ccc4[nH]c(C(=O)O)cc4c3F)c12 meets or exceeds 2%.
Reply | No

Ask | In plain terms: is recorded Compound recovery at least 2% for Cc1c(OC[C@@H](C)OS(=O)(=O)O)cn2ncnc(Oc3ccc4[nH]c(CO)cc4c3F)c12 ?
Reply | No

Ask | Record Cc1cc2c(F)c(Oc3ncnn4cc(O[C@@H]5O[C@H](C(=O)O)[C@@H](O)[C@H](O)[C@H]5O)c(C)c34)ccc2[nH]1 ; criterion: Compound recovery no lower than 2%. Met?
Reply | Yes

Ask | API: above_or_equal(metric=Compound recovery, cutoff=2%) for item Cc1cc2c(F)c(Oc3ncnn4cc(O)c(C)c34)ccc2[nH]1
Reply | Yes

---

# reported Compound recovery; entries follow
Test details: Drug excretion in human urine treated with [14C]brivanib alaninate at 800 mg, po administered as single dose […] by HPLC analysis
Type: ADME, organism-based
Assay context: in vivo
Provide the reading as a plain figure in %.

Use these answered entries as a reference point.
Cc1cc2c(F)c(Oc3ncnn4cc(OC[C@@H](C)O[C@@H]5O[C@H](C(=O)O)[C@@H](O)[C@H](O)[C@H]5O)c(C)c34)ccc2[nH]1 = 1.1
Cc1c(OS(=O)(=O)O)cn2ncnc(Oc3ccc4[nH]c(C(=O)O)cc4c3F)c12 = 3.3
Cc1cc2c(F)c(Oc3ncnn4cc(O[C@@H]5O[C@H](C(=O)O)[C@@H](O)[C@H](O)[C@H]5O)c(C)c34)ccc2[nH]1 = 0.8

Ask | Field request: Compound recovery | item: Cc1c(OC[C@@H](C)O)cn2ncnc(Oc3ccc4[nH]c(C(=O)O)cc4c3F)c12
Reply | 0.4

---

Tested on: Plasma
Test details: Drug level in cynomolgus monkey plasma assessed as compound formation treated with [14C]brivanib alaninate at 10 mg/kg, po administered as single dose via gavage measured after 2 hrs by HPLC analysis
Assay type: ADME, organism-based, Macaca fascicularis
Assay context: in vivo
Observed property: Compound recovery (%)
Number only, in %; omit the unit.

Example entries begin here.
Cc1cc2c(F)c(Oc3ncnn4cc(OC[C@@H](C)OS(=O)(=O)O)c(C)c34)ccc2[nH]1 = 1
Cc1c(OS(=O)(=O)O)cn2ncnc(Oc3ccc4[nH]c(C(=O)O)cc4c3F)c12 = 3
Cc1cc2c(F)c(Oc3ncnn4cc(OS(=O)(=O)O)c(C)c34)ccc2[nH]1 = 5.9

Turning now to a further record.
Ask | Returns the measured Compound recovery for the input molecule. Input: Cc1c(OC[C@@H](C)OS(=O)(=O)O)cn2ncnc(Oc3ccc4[nH]c(CO)cc4c3F)c12
Reply | 1.5

---

// reported Compound recovery for each item listed
Test system: Plasma
Test details: Drug level in human plasma assessed as compound formation treated with [14C]brivanib alaninate at 800 mg, po administered as single dose via gavage measured after 12 hrs by HPLC analysis
Assay type: ADME, organism-based
Assay context: in vivo
State just the number; it will be interpreted in %.

Cc1cc2c(F)c(Oc3ncnn4cc(O[C@@H]5O[C@H](C(=O)O)[C@@H](O)[C@H](O)[C@H]5O)c(C)c34)ccc2[nH]1 = 1.2
Cc1c(OC[C@@H](C)O)cn2ncnc(Oc3ccc4[nH]c(C(=O)O)cc4c3F)c12 = 4.6
Cc1cc2c(F)c(Oc3ncnn4cc(OS(=O)(=O)O)c(C)c34)ccc2[nH]1 = 8.9
Cc1cc2c(F)c(Oc3ncnn4cc(OC[C@@H](C)O)c(C)c34)ccc2[nH]1 = 38

Ask | Which Compound recovery value is on record for Cc1c(OS(=O)(=O)O)cn2ncnc(Oc3ccc4[nH]c(C(=O)O)cc4c3F)c12 ?
Reply | 24.3

Ask | # query: Compound recovery of entry Cc1cc2c(F)c(Oc3ncnn4cc(OC[C@@H](C)OS(=O)(=O)O)c(C)c34)ccc2[nH]1
Reply | 10.8

Ask | Consider the compound shown here: Cc1c(OC[C@@H](C)OS(=O)(=O)O)cn2ncnc(Oc3ccc4[nH]c(CO)cc4c3F)c12 What is its recorded Compound recovery?
Reply | 4.1

---

System: Rattus norvegicus
Test details: AUC (0 to 6 hrs) Sprague-Dawley rat plasma treated with [14C]brivanib alaninate at 100 mg/kg, po administered as single oral dose by HPLC analysis
Assay type: ADME, organism-based
Assay context: in vivo
Measured AUC values are reported for all entries that follow.
Please give a number only; it is taken to be in ugequiv/l.hr.

Solved cases below.
Cc1c(OC[C@@H](C)OS(=O)(=O)O)cn2ncnc(Oc3ccc4[nH]c(CO)cc4c3F)c12 = 5443.1
Cc1cc2c(F)c(Oc3ncnn4cc(OC[C@@H](C)OS(=O)(=O)O)c(C)c34)ccc2[nH]1 = 1628.2
Cc1cc2c(F)c(Oc3ncnn4cc(OS(=O)(=O)O)c(C)c34)ccc2[nH]1 = 37494.4
Cc1c(OC[C@@H](C)O)cn2ncnc(Oc3ccc4[nH]c(C(=O)O)cc4c3F)c12 = 12825.3
Cc1cc2c(F)c(Oc3ncnn4cc(OC[C@@H](C)O)c(C)c34)ccc2[nH]1 = 23709.8

# context switch: different compound, same AUC
Ask | Requested read-out: AUC. Entry: Cc1c(OS(=O)(=O)O)cn2ncnc(Oc3ccc4[nH]c(C(=O)O)cc4c3F)c12
Reply | 29545.4

---

Catalogue of molecules with associated AUC metabolite/AUC radiolabel
System: Rattus norvegicus
Test details: Drug uptake in Sprague-Dawley rat plasma treated with [14C]brivanib alaninate assessed as AUC (0 to 6 hrs) of total radio activity at 100 mg/kg, po administered as single oral dose by HPLC analysis
Type: ADME, organism-based
Assay context: in vivo
Quick note: give the figure in %, leave out the unit.

Cc1c(OC[C@@H](C)OS(=O)(=O)O)cn2ncnc(Oc3ccc4[nH]c(CO)cc4c3F)c12 = 3.9
Cc1c(OS(=O)(=O)O)cn2ncnc(Oc3ccc4[nH]c(C(=O)O)cc4c3F)c12 = 21.1
Cc1cc2c(F)c(Oc3ncnn4cc(OC[C@@H](C)OS(=O)(=O)O)c(C)c34)ccc2[nH]1 = 1.2
Cc1cc2c(F)c(Oc3ncnn4cc(OC[C@@H](C)O)c(C)c34)ccc2[nH]1 = 17
Cc1cc2c(F)c(Oc3ncnn4cc(OS(=O)(=O)O)c(C)c34)ccc2[nH]1 = 26.8

We now examine a further molecule.
Ask | Bench note: what AUC metabolite/AUC radiolabel did Cc1c(OC[C@@H](C)O)cn2ncnc(Oc3ccc4[nH]c(C(=O)O)cc4c3F)c12 show?
Reply | 9.2

---

Tested on: Homo sapiens
Test details: Drug uptake in human plasma treated with [14C]brivanib alaninate assessed as AUC (0 to 12 hrs) of total radio activity at 800 mg, po administered as single oral dose by HPLC analysis
Format: ADME, organism-based
Assay context: in vivo
Threshold 6%. AUC metabolite/AUC radiolabel below it: Met. AUC metabolite/AUC radiolabel at it or above: Not met.

Recorded results for 5 compounds are shown here.
Cc1cc2c(F)c(Oc3ncnn4cc(OC[C@@H](C)OS(=O)(=O)O)c(C)c34)ccc2[nH]1 = Met
Cc1c(OS(=O)(=O)O)cn2ncnc(Oc3ccc4[nH]c(C(=O)O)cc4c3F)c12 = Not met
Cc1cc2c(F)c(Oc3ncnn4cc(OS(=O)(=O)O)c(C)c34)ccc2[nH]1 = Met
Cc1cc2c(F)c(Oc3ncnn4cc(OC[C@@H](C)O)c(C)c34)ccc2[nH]1 = Not met
Cc1c(OC[C@@H](C)O)cn2ncnc(Oc3ccc4[nH]c(C(=O)O)cc4c3F)c12 = Not met

# input for lookup
Ask | Lab note: confirm whether the reported AUC metabolite/AUC radiolabel for this compound is below 6%, equality not counting. compound: Cc1c(OC[C@@H](C)OS(=O)(=O)O)cn2ncnc(Oc3ccc4[nH]c(CO)cc4c3F)c12
Reply | Met
